Target: tau (Homo sapiens)
Sequence (P10636 623-695 limits assumed): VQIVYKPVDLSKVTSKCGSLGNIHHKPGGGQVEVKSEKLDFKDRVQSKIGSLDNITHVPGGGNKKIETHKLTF
Assay: MCE Phenols Library screening, tau biosensor cell seeding assay (AvZ)
Assay type: cell-based
Details: average Z score of the two replicates, tau biosensor seeding, MCE Phenols Library screen
Readout label: av Z
# answer = number (no unit)

IN: Value lookup for av Z; key = O=c1c(O[C@@H]2O[C@H](CO)[C@@H](O)[C@H](O)[C@H]2O[C@@H]2O[C@H](CO)[C@@H](O)[C@H](O)[C@H]2O)c(-c2ccc(O)c(O)c2)oc2cc(O)cc(O)c12 [Baimaside]
OUT: 1.04

IN: Value lookup for av Z; key = Oc1cc(O)c2c(c1)O[C@H](c1ccc(O)c(O)c1)[C@H](O)[C@H]2c1c(O)cc(O)c2c1O[C@H](c1ccc(O)c(O)c1)[C@H](O)[C@H]2c1c(O)cc(O)c2c1O[C@H](c1ccc(O)c(O)c1)[C@H](O)C2
OUT: 1.18

IN: Value lookup for av Z; key = CC[C@@]1(O)C(=O)OCc2c1cc1n(c2=O)Cc2cc3cc(O)ccc3nc2-1 [(S)-10-Hydroxycamptothecin]
OUT: 1.767

IN: Value lookup for av Z; key = COc1cc2c(cc1O)CC[C@@H]1[C@@H]2CC[C@]2(C)[C@@H](O)CC[C@@H]12
OUT: 1.173

IN: Value lookup for av Z; key = COc1ccc(-c2cc(=O)c3c(O)c(OC)c(OC)cc3o2)cc1O
OUT: 0.859

IN: Value lookup for av Z; key = COc1cc(-c2cc(=O)c3c(O)c(OC)c(O)cc3o2)ccc1O
OUT: 0.958
